In this section we review reported pIC50 values for a set of compounds.
Test system: MDA MB231
Test: Antiproliferative assay, MDA MB231
Assay type: cell-based, human
Conditions: Homo sapiens, MDA-MB-231; 48 h incubation; average of three assays, standard error ± 0.5 μM
Formally, pIC50 is defined as -log10 of the concentration c, with c in mol/L.

Item: COc1cccc2c1C(=O)c1c(O)c3c(c(O)c1C2=O)C[C@@](O)(C(=O)CO)C[C@@H]3O[C@H]1C[C@H](N)[C@H](O)[C@H](C)O1 [Doxorubicin, reference compound] | pIC50: 7.70

The value of pIC50 measured for the compound N=c1c2c(ncn1/N=C/c1ccccc1O)Oc1ccc3ccccc3c1C2 [10k] turned out to be 5.96

Short answer for COc1cccc2c1Oc1ncn(/N=C/c3ccccc3)c(=N)c1C2 [10i] : pIC50 was 6.22

The recorded pIC50 for entry N=c1c2c(ncn1/N=C/c1ccccc1O)Oc1ccccc1C2 [10e] equals 5.82

Memo: CN(C)c1ccc(/C=N/n2cnc3c(c2=N)Cc2ccccc2O3)cc1 [10d] , reported pIC50: 4.96

Per the records, this compound ( COc1cccc2c1Oc1ncn(/N=C/c3ccccc3O)c(=N)c1C2 [10h] ) has pIC50 equal to 6.52

----------
Tested on: HCT 116
Experiment: Antiproliferative assay, HCT 116
Assay type: cell-based, human
Settings: Homo sapiens, HCT-116; 48 h incubation; average of three assays, standard error ± 0.5 μM
The reader will find reported log10 of IC50 values listed item by item below.
Hi team, quick reminder: these entries are log10 of IC50 (µM).

These solved cases illustrate the format of a correct answer.
COc1cccc2c1Oc1ncn(/N=C/c3ccccc3O)c(=N)c1C2 [10h] | -0.62
COc1cccc2c1C(=O)c1c(O)c3c(c(O)c1C2=O)C[C@@](O)(C(=O)CO)C[C@@H]3O[C@H]1C[C@H](N)[C@H](O)[C@H](C)O1 [Doxorubicin, reference compound] | -1.15
N=c1c2c(ncn1/N=C/c1ccccc1O)Oc1ccc3ccccc3c1C2 [10k] | -0.22
CN(C)c1ccc(/C=N/n2cnc3c(c2=N)Cc2ccccc2O3)cc1 [10d] | 1.04
N=c1c2c(ncn1/N=C/c1ccccc1)Oc1ccccc1C2 [10f] | 1.00
COc1cccc2c1Oc1ncn(/N=C/c3ccccc3)c(=N)c1C2 [10i] | -0.21

# log10 of IC50 (compound: CN(C)c1ccc(/C=N/n2cnc3c(c2=N)Cc2c(ccc4ccccc24)O3)cc1 [10j] ) is 1.38

----------
Measured selectivity ratio at 48 h by item
Assay: Antiproliferative assay, Caco2
Format: cell-based, human
Conditions: human, Caco-2; SI = IC50 fibroblasts/IC50 on Caco2; read-out: Selectivity Index (SI) Caco2
Kindly provide the number alone.

Lookup result for N=c1c2c(ncn1/N=C/c1ccccc1O)Oc1ccccc1C2 [10e] ; measured selectivity ratio at 48 h: 0.8

Sample CN(C)c1ccc(/C=N/n2cnc3c(c2=N)Cc2ccccc2O3)cc1 [10d] ; selectivity ratio at 48 h observed: 1.4

Briefly, selectivity ratio at 48 h measured for COc1cccc2c1C(=O)c1c(O)c3c(c(O)c1C2=O)C[C@@](O)(C(=O)CO)C[C@@H]3O[C@H]1C[C@H](N)[C@H](O)[C@H](C)O1 [Doxorubicin, reference compound] : 0.33

----------
System: Huh7 D12
Assay: Antiproliferative assay, Huh7 D12
Type: cell-based, human
Settings: Homo sapiens, Huh-7D12; 48 h incubation; average of three assays, standard error ± 0.5 μM
measured quantity: IC50

N=c1c2c(ncn1/N=C/c1ccccc1)Oc1ccccc1C2 [10f] | > 25 µM
N=c1c2c(ncn1/N=C/c1ccccc1)Oc1ccc3ccccc3c1C2 [10l] | > 25 µM
CCN(CC)c1ccc2c(c1)Oc1ncn(/N=C/c3ccc(N(C)C)cc3)c(=N)c1C2 [10a] | > 25 µM

Let us examine a further case.
Query CCN(CC)c1ccc2c(c1)Oc1ncn(/N=C/c3ccccc3O)c(=N)c1C2 [10b] yields IC50 of > 25 µM

----------
Assay: Antiproliferative assay, Caco2
Format: cell-based, human
Conditions: human, Caco-2; SI = IC50 fibroblasts/IC50 on Caco2; read-out: Selectivity Index (SI) Caco2
measured quantity: selectivity ratio at 48 h
Keep the answer to the number alone.

Past entries and their recorded results:
N=c1c2c(ncn1/N=C/c1ccccc1O)Oc1ccc3ccccc3c1C2 [10k] | 1.25
CN(C)c1ccc(/C=N/n2cnc3c(c2=N)Cc2c(ccc4ccccc24)O3)cc1 [10j] | 1.1

Value of measured selectivity ratio at 48 h for the entry COc1cccc2c1Oc1ncn(/N=C/c3ccc(N(C)C)cc3)c(=N)c1C2 [10g] : 1.1
